molecular target: Rb^53-800∆NL/∆PL/S780A, phosphorylated (UniProt P06400 53-800, S780A, phosphorylated with Cdk; Rb^IDL (T356/T373) and RbC^N (S788/S795) sites); test: ITC
measured_attribute: Kd
Answer shape: numeric part, then the unit.

Sure, the documented Kd for E2F1 transactivation domain (E2F1^TD, residues 372-437) (domain or fragment, UniProt Q01094 372-437, looked up) DRLSPLVAADSLLEHVREDFSGLLPEEFISLSPPHEALDYHFGLEEGEGIRDLFDCDFGDLTPLDF is 30 µM
